Reference for the values: the supplement of paper PMC3545927

target: furin, P09958; test: furin cleavage Z-score vs untreated control; higher = more cleavage, active = 3.5 or more, inactive = 1 or less, 8 variable residues between constant flanks; conditions: 7.5 min;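 also: purified furin at 1:10 enzyme:substrate in 50 mM HEPES pH 7.5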
Sequence (P09958 whole entry): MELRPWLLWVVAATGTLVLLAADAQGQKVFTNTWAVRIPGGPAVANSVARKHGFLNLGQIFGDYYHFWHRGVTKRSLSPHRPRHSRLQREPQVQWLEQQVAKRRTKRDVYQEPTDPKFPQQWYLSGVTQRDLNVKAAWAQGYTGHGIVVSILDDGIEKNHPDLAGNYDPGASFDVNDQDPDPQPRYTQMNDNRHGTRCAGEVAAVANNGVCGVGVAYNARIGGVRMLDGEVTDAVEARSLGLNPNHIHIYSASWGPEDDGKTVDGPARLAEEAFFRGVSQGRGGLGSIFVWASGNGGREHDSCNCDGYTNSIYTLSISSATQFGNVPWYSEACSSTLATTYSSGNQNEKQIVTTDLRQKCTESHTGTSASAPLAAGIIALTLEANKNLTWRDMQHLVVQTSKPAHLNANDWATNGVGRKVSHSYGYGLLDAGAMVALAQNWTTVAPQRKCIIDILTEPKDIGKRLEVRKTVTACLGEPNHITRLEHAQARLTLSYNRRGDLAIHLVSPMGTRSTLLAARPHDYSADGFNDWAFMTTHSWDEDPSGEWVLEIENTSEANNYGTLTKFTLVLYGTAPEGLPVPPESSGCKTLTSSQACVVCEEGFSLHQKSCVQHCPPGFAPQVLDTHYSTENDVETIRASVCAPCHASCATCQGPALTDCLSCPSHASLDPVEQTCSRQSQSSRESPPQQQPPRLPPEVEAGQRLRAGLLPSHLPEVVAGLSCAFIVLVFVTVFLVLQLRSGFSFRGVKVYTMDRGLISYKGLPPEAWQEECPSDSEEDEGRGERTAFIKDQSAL
This is one part of the list. No count for the full screen is at hand.
Recorded furin cleavage Z-score, one value per entry.
EXPERIMENTAL READOUT: furin cleavage Z-score

sequence_code="CASTPCSAHIAGNASASA [HC2564]" result_value="-0.152 (inactive)"
sequence_code="CAREQRERRRAGNASASA [FS-1155]" result_value="0.997 (inactive)"
sequence_code="CAAMRRLKRRAGNASASA [FS-1304]" result_value="8.73 (active)"
sequence_code="CARFLRHTGRAGNASASA [FS-1701]" result_value=2.28
sequence_code="CAELEVVTSTAGNASASA [HC2272]" result_value="-0.698 (inactive)"
sequence_code="CARRRRDATRAGNASASA [FS-1970]" result_value="13.2 (active)"
sequence_code="CATVVTSTWVAGNASASA [HC2158]" result_value="0.721 (inactive)"
